B1: Histone-lysine N-methyltransferase SETD2, residues 2382 to 2430; numbered along this chain, Q9BYW2 (parent)
chain: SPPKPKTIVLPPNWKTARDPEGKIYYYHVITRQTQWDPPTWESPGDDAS

Variants of: B1
Assay: abundance fitness (aPCA) (normalised: wild type 0, dead -1); higher = more abundant; growth selection in yeast, the domain comes from the species named
Details: Homo sapiens
quantity: abundance fitness
Numbers only.

// worked examples, abundance fitness included
- variant: "K6G"
  experimental-result: 0.037
- variant: "E42W"
  experimental-result: -0.172

Working through the 2 variants below one at a time, give abundance fitness for each.
1. Q35S
2. W41G

Key:
[-0.062, 0.034]
